tested-on: leukocyte (neutrophil) elastase (Homo sapiens)
Sequence (P08246 whole entry): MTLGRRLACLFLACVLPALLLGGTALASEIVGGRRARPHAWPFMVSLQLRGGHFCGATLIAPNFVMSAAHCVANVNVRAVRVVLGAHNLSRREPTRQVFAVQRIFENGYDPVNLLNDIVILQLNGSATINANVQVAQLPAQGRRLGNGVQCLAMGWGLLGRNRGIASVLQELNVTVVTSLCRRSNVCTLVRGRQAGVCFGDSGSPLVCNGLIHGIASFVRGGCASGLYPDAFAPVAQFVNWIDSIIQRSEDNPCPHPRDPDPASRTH
experiment-notes: Inhibition of human leukocyte elastase at 10 uM relative to control
parameter: inhibition at 10 µM (%)
Record the value in %, omitting the unit from your answer.

Hello, please tell me recorded inhibition at 10 µM for this one: COc1cccc2[nH]c(C(=O)N[C@@H](CC(C)C)C(=O)N[C@@H](C[C@@H]3CCNC3=O)C(=O)CO)cc12 [PF-00835231]
-31

* * *

experiment-notes: Cytotoxicity against human H9 cells assessed as reduction in cell viability incubated for 7 days by XTT dye based analysis
measurement-conditions: time 7 day
parameter: CC50 at 168 h

Hello, please tell me recorded CC50 at 168 h for this one: COc1cccc2[nH]c(C(=O)N[C@@H](CC(C)C)C(=O)N[C@@H](C[C@@H]3CCNC3=O)C(=O)CO)cc12
> 32 µM
